Let's go through some IC50 measurements on MabA (Mycobacterium tuberculosis) together.
Give the value, in units of µM, as a plain number.

Some compounds with recorded IC50:
O=C(Nc1ccc(C#CC2CC2)cc1C(=O)O)c1ccc(Cl)c(Cl)c1 [Compound 16] : 60
C#Cc1ccc(C(=O)O)c(NC(=O)c2ccc(Cl)c(Cl)c2)c1 [Compound 17] : 77

For the next question, use this compound.
Result for O=C(Nc1ccc(I)cc1C(=O)O)c1ccc(Cl)c(Cl)c1 [Compound 1] , tested on MabA (Mycobacterium tuberculosis), IC50: 38

###

Each item that follows carries a reported solubility at 24 h.
Measurement description: Solubility in PBS pH 7.4
Condition parameters: PBS pH 7.4, pH 7.4, aqueous buffer, kinetic from dmso stock
The reply should be a number in µM, with the unit left off.

Past entries and their recorded results:
O=C(Nc1ccc(I)cc1C(=O)NS(=O)(=O)C(F)(F)F)c1ccc(Cl)c(Cl)c1 : 180
O=C(Nc1cc(-n2cccn2)ccc1C(=O)O)c1ccc(Cl)c(Cl)c1 : 149

We now examine a further compound.
solubility at 24 h reading for "O=C(Nc1ccc(Br)cc1C(=O)O)c1ccc(Cl)c(Cl)c1" : 181

###

System: GFP-expressing M. tuberculosis H37Rv
Measurement description: microbe, parasite or virus in culture
Assay type: cell-based
Condition parameters: Mycobacterium tuberculosis, 168 h
Reported MIC90 values for the following molecules.
Give the quantity in µM, number only.

Known results for molecules:
O=C(Nc1ccc(I)cc1C(=O)NS(=O)(=O)C(F)(F)F)c1ccc(Cl)c(Cl)c1 : 300
O=C(Nc1ccc(I)cc1C(=O)O)c1ccc(Cl)c(Cl)c1 : 100
O=C(Nc1ccc(C#CC2CC2)cc1C(=O)O)c1ccc(Cl)c(Cl)c1 : 100

# MIC90 of "O=C(Nc1cc(-n2cccn2)ccc1C(=O)O)c1ccc(Cl)c(Cl)c1" = 300

Entry "O=C(Nc1ccc(Br)cc1C(=O)O)c1ccc(Cl)c(Cl)c1" ; MIC90 = 100

###

// reported IC50 for each item listed
Test target: MabA (Mycobacterium tuberculosis, UniProt P9WGT3)
Sequence (P9WGT3 whole entry, looked up): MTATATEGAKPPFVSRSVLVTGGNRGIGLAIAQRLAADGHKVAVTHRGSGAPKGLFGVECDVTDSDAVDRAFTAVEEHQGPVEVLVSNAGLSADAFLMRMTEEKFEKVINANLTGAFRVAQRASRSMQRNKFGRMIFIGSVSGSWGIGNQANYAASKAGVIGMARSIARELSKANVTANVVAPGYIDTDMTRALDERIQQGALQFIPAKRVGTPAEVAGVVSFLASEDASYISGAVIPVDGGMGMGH
Report the value in µM with no unit label.

O=C(O)c1cc(Br)ccc1NC(=S)c1ccc(Cl)c(Cl)c1 : 39

// assay MabA (Mycobacterium tuberculosis, UniProt P9WGT3), entry "O=C(Nc1nc2ccccc2cc1C(=O)O)c1ccc(Cl)c(Cl)c1" , IC50 value = 76

For "O=C(Nc1ccc(I)cc1C(=O)NS(=O)(=O)C(F)(F)F)c1ccc(Cl)c(Cl)c1" on MabA (Mycobacterium tuberculosis, UniProt P9WGT3), measured IC50 was 35

Noted IC50 for "O=C(Nc1cc(Br)ccc1C(=O)O)c1ccc(Cl)c(Cl)c1" , tested on MabA (Mycobacterium tuberculosis, UniProt P9WGT3): 34

Reading of IC50 for "O=C(O)c1cc(I)ccc1NS(=O)(=O)c1ccc(Cl)c(Cl)c1" with MabA (Mycobacterium tuberculosis, UniProt P9WGT3): 40

Field IC50 (system: MabA (Mycobacterium tuberculosis, UniProt P9WGT3)) for entry "O=C(Nc1cc(-n2cccn2)ccc1C(=O)O)c1ccc(Cl)c(Cl)c1" = 23

The value of IC50 recorded for "O=C(Nc1cc2ccccc2cc1C(=O)O)c1ccc(Cl)c(Cl)c1" when tested on MabA (Mycobacterium tuberculosis, UniProt P9WGT3) reads 33

###

# solubility per record follows
Measurement description: Solubility in Sauton medium
Assay type: physicochemical
Condition parameters: aqueous buffer

Just so you know, measured solubility for O=C(Nc1cc(-n2cccn2)ccc1C(=O)O)c1ccc(Cl)c(Cl)c1 [Compound 18] came out at > 300 µM

Short answer for O=C(Nc1ccc(C#CC2CC2)cc1C(=O)O)c1ccc(Cl)c(Cl)c1 [Compound 16] : solubility was > 300 µM

###

System: plasma proteins
Measurement description: Plasma protein binding by rapid equilibrium dialysis
Condition parameters: 10% plasma (diluted 1 to 10 in phosphate buffer), pH 7.2
Measured fraction unbound at 4 h, 10 µM, listed per entry.
Lab note: jot down the number only; don't add units.

As a guide, the following entries are already answered.
O=C(Nc1ccc(I)cc1C(=O)NS(=O)(=O)C(F)(F)F)c1ccc(Cl)c(Cl)c1 : 0.0002
O=C(Nc1ccc(I)cc1C(=O)O)c1ccc(Cl)c(Cl)c1 : 0.0014

We next turn to a different compound, shown below.
Form: compound = "O=C(Nc1ccc(C#CC2CC2)cc1C(=O)O)c1ccc(Cl)c(Cl)c1" ; fraction unbound at 4 h, 10 µM = 0.0006

###

Measurement description: LogD octanol/PBS pH 7.4
Condition parameters: octanol/PBS 1/1, pH 7.4
Measure name: logD at 2 h
Could you respond with only the numeric value?

Consider the worked cases shown below.
O=C(Nc1ccc(I)cc1C(=O)NS(=O)(=O)C(F)(F)F)c1ccc(Cl)c(Cl)c1 [Compound 12] : 4.1
O=C(Nc1ccc(Br)cc1C(=O)O)c1ccc(Cl)c(Cl)c1 [Compound 2] : 3
O=C(Nc1cc(-n2cccn2)ccc1C(=O)O)c1ccc(Cl)c(Cl)c1 [Compound 18] : 2.54

Entry O=C(Nc1ccc(I)cc1C(=O)O)c1ccc(Cl)c(Cl)c1 [Compound 1] , logD at 2 h reported as 3.4

Where these numbers come from: paper PMC10057394
